- assayed.system: Fructose-bisphosphate aldolase (Mycobacterium tuberculosis (strain ATCC 25618 / H37Rv)) (UniProt P9WQA3)
- Sequence (P9WQA3 whole entry, looked up): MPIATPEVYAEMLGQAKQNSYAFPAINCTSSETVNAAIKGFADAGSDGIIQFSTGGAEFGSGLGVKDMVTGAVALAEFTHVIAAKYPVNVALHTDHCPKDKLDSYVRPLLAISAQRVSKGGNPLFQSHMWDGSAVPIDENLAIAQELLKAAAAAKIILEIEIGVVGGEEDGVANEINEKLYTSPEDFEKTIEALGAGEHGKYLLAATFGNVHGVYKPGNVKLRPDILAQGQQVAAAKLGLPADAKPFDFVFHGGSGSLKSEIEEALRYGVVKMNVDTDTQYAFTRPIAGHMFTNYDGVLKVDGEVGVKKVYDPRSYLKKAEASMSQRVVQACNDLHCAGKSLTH
- assay.method.text: Mtb FBA enzyme inhibitors, primary screen, biochemical, fluorescence, strain H37Rv (AID 588726);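 note: 0% = vehicle and 100% = reference inhibitor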
- condition.set: purified M. tuberculosis FBA, fluorescence read-out, at 1 µM
Hit rate of the full screen: of about 360,000 compounds, about 8,200 (2.3%) were called active. Cut-off read from the data, not from the text of the source: active = inhibition above about 27%; inactive = the rest. Shown is part of a subset that was picked to be rich in actives.
Please state which outcome applies, choosing from 1.0 for active, 0.0 for inactive

See these solved cases before continuing.
compound	label.value
CCOC(=O)COc1nc(C)cc(C(F)(F)F)c1C#N	1.0
CCOC(=O)C1(Cc2ccc(Cl)cc2)CCN(C(=O)C2=NNC(=O)CC2)CC1	0.0

INPUT: Entry COCCCn1c(CCC(=O)O)ccc1-c1ccc(F)cc1 : call = ?
OUTPUT: 1.0

INPUT: # outcome recorded in this test, key = Cc1ccc(-c2ccnc3nc(Sc4ncc(C(F)(F)F)cc4Cl)nn23)cc1
OUTPUT: 0.0

INPUT: # outcome recorded in this test, key = COc1ccc(-c2ccc(CCC(=O)O)n2-c2ccc(O)cc2)cc1
OUTPUT: 0.0

INPUT: Which outcome did this test record for the compound CCc1cccc(C)c1NC(=O)COC(=O)Cc1ccsc1 ?
OUTPUT: 0.0

INPUT: # fetch the recorded call for COc1ccc(/C=C/C(=O)NC(=S)NN2CCCCC2c2cccnc2)cc1 (stereo unspecified) here
OUTPUT: 0.0

* * *

inhibition values by entry
- assayed.system: Fructose-bisphosphate aldolase (Mycobacterium tuberculosis (strain ATCC 25618 / H37Rv))
- assay.method.text: Mtb FBA enzyme inhibitors, primary screen, biochemical, fluorescence, strain H37Rv (AID 588726);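 note: 0% = vehicle and 100% = reference inhibitor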
- condition.set: purified M. tuberculosis FBA, fluorescence read-out, at 1 µM, hits give high values
The whole screen tested about 360,000 compounds, of which about 8,200 (2.3%) were called active. The sample as a whole holds a higher share of actives than the screen did.
Reply numerically in %, unit not repeated.

INPUT: Can you look up the measured inhibition of Fc1ccc(CSc2nnc(-c3cc4c(s3)-c3ccccc3CC4)o2)cc1 for me?
OUTPUT: 154

* * *

Recorded inhibition for the following molecules
- assayed.system: Fructose-bisphosphate aldolase (Mycobacterium tuberculosis (strain ATCC 25618 / H37Rv)) (UniProt P9WQA3)
- assay.method.text: Mtb FBA enzyme inhibitors, primary screen, biochemical, fluorescence, strain H37Rv (AID 588726);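 note: 0% = vehicle and 100% = reference inhibitor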
- condition.set: purified M. tuberculosis FBA, fluorescence read-out, at 1 µM, hits give high values
The whole screen tested about 360,000 compounds, of which about 8,200 (2.3%) were called active. The entries come from a sample that favours actives as a whole.
Your answer should be a plain number; it is taken to be in %.

The following molecules have reported results that may help.
molecule	inhibition / %
CCc1nc2c(OCC(=O)C(C)(C)C)cccn2c1N(C)C(=O)c1ccccc1F	-0.18
NS(=O)(=O)c1cc2c(cc1Cl)NC(C(Cl)Cl)NS2(=O)=O (stereo unspecified)	2.88
COC(=O)[C@@H]1C[C@@]2(O)[C@@H](O)[C@@H](O)[C@@H](O)C[C@H]2N1Cc1ccc(C)s1	-1.21
CCN(CC)c1ccc2cc(C(=O)O)c(=O)oc2c1	36.2
COc1cc(/C=C/C2=CC(C)(C)NC(=S)N2)cc(OC)c1OC	-5.13

INPUT: I am curious: what inhibition value has been reported for CCC(=O)c1ccc(OC(=O)/C=C/c2cc(OC)c(OC)c(OC)c2)cc1 ?
OUTPUT: 4.81

INPUT: Quick one: inhibition of COC(=O)c1ccc(NC(=O)CSc2nncn2-c2cccnc2)cc1 ?
OUTPUT: 0.47

INPUT: Could you share which inhibition value was measured for CCOC(=O)c1sc2nc(C)nc(Nc3ccc(OC)c(OC)c3)c2c1C ?
OUTPUT: 0.66

INPUT: Tell me the measured inhibition of COc1cc(/C=C/c2ccc(/C=C/c3cc(OC)c(OC)c(OC)c3)cc2)cc(OC)c1OC , please.
OUTPUT: 50.4

INPUT: Value lookup for inhibition; key = Cc1cc(=O)n2nc(N3CCCC3C(=O)NCCCN3CC(C)CC(C)C3)sc2n1 (stereo unspecified)
OUTPUT: 3.34

INPUT: What measured inhibition goes with COC(=O)[C@]1(Cc2ccccc2)N[C@H](CN(C)S(=O)(=O)c2ccc(OC(F)(F)F)cc2)[C@@H]2C(=O)N(C)C(=O)[C@@H]21 ?
OUTPUT: 0.06
